System: PER-536
Experiment: IC50 cell viability (Alamar Blue, 96 h)
PROPERTY_NAME: IC50 cell viability

COc1cc2ncnc(Nc3ccc(F)c(Cl)c3)c2cc1OCCCN1CCOCC1 [Gefitinib] :: > 10 µM
CN(Cc1cnc2nc(N)nc(N)c2n1)c1ccc(C(=O)N[C@@H](CCC(=O)O)C(=O)O)cc1 [Methotrexate] :: > 10 µM

Attention now shifts to the item below.
Summary for this compound, CC[C@@]1([C@@H]2O[C@@H]([C@H]3O[C@@](O)(CO)[C@H](C)C[C@@H]3C)C[C@@H]2C)CC[C@H]([C@]2(C)CC[C@]3(C[C@H](O)[C@@H](C)[C@@H]([C@@H](C)[C@@H](OC)[C@H](C)C(=O)O)O3)O2)O1 [Monensin] : IC50 cell viability is > 10 µM
